What solubility kinetic was measured for each of the following?
Conditions: buffer; pH 7.4; 200.0 µM

Look up solubility kinetic for this molecule: CC(=O)OC1(c2ccccc2)CCN(C)CC1(C)C.Cl (stereo not drawn)
44.2 µg/mL

Look up solubility kinetic for this molecule: CCCCCN1C=CC=C/C1=C\C=C(C#N)C#N
6.9 µg/mL

Look up solubility kinetic for this molecule: COc1cc(SC)ccc1C(=O)N1CCc2ccccc21
4.5 µg/mL

Look up solubility kinetic for this molecule: CCc1cccc(NC(=O)c2ccc3c(=O)n4c(nc3c2)CCCCC4)c1
9.2 µg/mL

Look up solubility kinetic for this molecule: Cc1ccnc(NC(=O)CCNC(=O)c2ccccc2Cl)c1
> 47.7 µg/mL

Look up solubility kinetic for this molecule: CC(C)CCNC(=O)C1(c2cccs2)CCOCC1
> 42.2 µg/mL

Look up solubility kinetic for this molecule: N/C(Cc1nc2ccccc2s1)=N\O
29.3 µg/mL

Look up solubility kinetic for this molecule: Cc1cc(C)c(NC(=S)N(C)C)c(C)c1
> 33.4 µg/mL

Look up solubility kinetic for this molecule: CC(=O)Nc1csc2ccccc12
> 28.7 µg/mL

Look up solubility kinetic for this molecule: CC(C)C(NS(=O)(=O)c1ccccc1)C(=O)N1CCCCCC1 (stereo not drawn)
> 50.8 µg/mL

Look up solubility kinetic for this molecule: O=C(COc1cccnc1[N+](=O)[O-])NCc1ccc(F)cc1
> 45.8 µg/mL

Look up solubility kinetic for this molecule: CC(=O)Nc1c(-c2ccccc2Cl)c(=O)c2ccccc2n1C
> 49 µg/mL

Look up solubility kinetic for this molecule: Cn1cc(C=O)c2cc(F)ccc21
> 26.6 µg/mL

---

What solubility kinetic was measured for each of the following?
Conditions: buffer; pH 7.4; 200.0 µM

Look up solubility kinetic for this molecule: CC(=O)Nc1cccc(Oc2nc(C(F)(F)F)nc3ccccc23)c1
14 µg/mL

Look up solubility kinetic for this molecule: CC1=CC(C)(C)N(C(=O)CN2C(=O)CCC2=O)c2ccc(C)cc21
> 49 µg/mL

Look up solubility kinetic for this molecule: CC(=O)c1ccc(Nc2nc(C)cc(C)n2)cc1
5.6 µg/mL

Look up solubility kinetic for this molecule: O=S(=O)(Nc1ccncc1)c1ccc(Cl)c(Cl)c1
3.7 µg/mL

Look up solubility kinetic for this molecule: NS(=O)(=O)c1cccc(NC(=O)COC(=O)/C=C/c2nc3ccccc3s2)c1
22.8 µg/mL

Look up solubility kinetic for this molecule: O=C1NC(c2ccc(Br)cc2)Oc2ccccc21 (configuration not stated)
2.1 µg/mL

Look up solubility kinetic for this molecule: O=C(c1cccnc1)N1CCN(S(=O)(=O)c2cccs2)CC1
> 50.6 µg/mL

Look up solubility kinetic for this molecule: COc1ccc(C)cc1NC(=O)C(=O)N1CCCC1
39.1 µg/mL

Look up solubility kinetic for this molecule: N#CCN1C(=O)NC2(CCCc3sccc32)C1=O (configuration not stated)
> 39.2 µg/mL

Look up solubility kinetic for this molecule: O=C(c1ccc(-c2ccc(Cl)cc2Cl)o1)N1CCOCC1
4.2 µg/mL

Look up solubility kinetic for this molecule: COc1cccc(-n2c(/C=C/c3ccccn3)nc3ccccc3c2=O)c1
0.5 µg/mL

Look up solubility kinetic for this molecule: CCn1ccnc1CNC(=O)c1cc(COc2ccc(F)cc2F)on1
49.3 µg/mL
